assay_method_text: Cytotoxicity against human KB/S cells after 72 hrs by MTT assay
Format: functional, cell-based
test_context: Homo sapiens, 72 h
What IC50 was measured for each of the following?
One number for each entry, in nM.

The cases that follow already have their IC50 on record.
CC[C@]12C=CCN3CC[C@]4(C(=C(C(=O)OC)C1)Nc1cc5c(cc14)[C@@H]1[C@H](O5)[C@@H](O)[C@@]4(CC)CC(C(=O)OC)=C5N=C6C(=CC(=O)C(OC)=C6OC)[C@@]56CCN1[C@H]64)[C@@H]32: 30
CC[C@]12C=CCN3CC[C@]4(C(=C(C(=O)OC)C1)Nc1cc5c(cc14)[C@@H]1[C@H](O5)[C@@H](O)[C@@]4(CC)CC(C(=O)OC)=C5Nc6c(cc(O)c(OC)c6OC)[C@@]56CCN1[C@@H]46)[C@@H]32: 1500
CC[C@@]12CC(C(=O)OC)=C3Nc4cc5c(cc4[C@@]34CCN(C[C@H]3O[C@H]31)[C@@H]24)[C@@H]1[C@H](O5)[C@@H](O)[C@@]2(CC)CC(C(=O)OC)=C3Nc4c(cc(O)c(OC)c4OC)[C@@]34CCN1[C@@H]24 [CONOPHYLLINE]: 30

For the next question, use this molecule.
State the recorded IC50 for this entry: CC[C@@]12CC(C(=O)OC)=C3N=C4C(=CC(=O)C(OC)=C4OC)[C@@]34CCN([C@H](c3ccc5c(c3)[C@@]36CCN7C[C@H]8O[C@H]8[C@@](CC)(CC[C@@H]3N5C)[C@H]76)[C@H]3O[C@H]31)[C@H]42 1100

---

assay_method_text: Cytotoxicity against human KB/S cells after 72 hrs by MTT assay
Format: functional, cell-based
test_context: Homo sapiens, 72 h
value_type: pIC50
Give bare numbers, as −log10 of the molar value.

Take a look at these entries with their results.
CC[C@@]12CC(C(=O)OC)=C3Nc4c(cc(O)c(OC)c4OC)[C@@]34CCN([C@@H]3c5cc6c(cc5O[C@@H]3[C@H]1O)NC1=C(C(=O)OC)C[C@]35CCO[C@H]3CCN3CC[C@@]16[C@@H]35)[C@@H]24: 6.30
CC[C@@]12CC(C(=O)OC)=C3Nc4cc5c(cc4[C@@]34CCN(C[C@H](O)[C@H]1O)[C@@H]24)[C@@H]1[C@H](O5)[C@@H](O)[C@@]2(CC)CC(C(=O)OC)=C3Nc4c(cc(O)c(OC)c4OC)[C@@]34CCN1[C@@H]24: 6.15

Next:
Need pIC50, item CC[C@@]12CC(C(=O)OC)=C3N=C4C(=CC(=O)C(OC)=C4OC)[C@@]34CCN([C@@H]3c5cc6c(cc5O[C@@H]3[C@H]1O)NC1=C(C(=O)OC)C[C@]3(CC)[C@H](O)[C@@H](O)CN5CC[C@@]16[C@@H]53)[C@H]42 6.70

---

System: KB/VJ300
assay_method_text: Cytotoxicity against human KB/VJ300 cells after 72 hrs by MTT assay
Assay type: functional, cell-based
test_context: Homo sapiens, KB/VJ300, 72 h
pIC50: −log10 of the molar value.
Field: pIC50. Provide a value for each of the compounds that follow.

CC[C@@]12CC(C(=O)OC)=C3Nc4cc5c(cc4[C@@]34CCN(C[C@H](O)[C@H]1O)[C@@H]24)[C@@H]1[C@H](O5)[C@@H](O)[C@@]2(CC)CC(C(=O)OC)=C3Nc4c(cc(O)c(OC)c4OC)[C@@]34CCN1[C@@H]24: < 5.00
CC[C@@]12CC(C(=O)OC)=C3N=C4C(=CC(=O)C(OC)=C4OC)[C@@]34CCN([C@@H]3c5cc6c(cc5O[C@@H]3[C@H]1O)NC1=C(C(=O)OC)C[C@]3(CC)[C@@H]5O[C@@H]5CN5CC[C@@]16[C@@H]53)[C@H]42: 5.07
CC[C@@]12CC(C(=O)OC)=C3Nc4cc5c(cc4[C@@]34CCN(C[C@H]3O[C@H]31)[C@@H]24)[C@@H]1[C@H](O5)[C@@H](O)[C@@]2(CC)CC(C(=O)OC)=C3Nc4c(cc(O)c(OC)c4OC)[C@@]34CCN1[C@@H]24: < 5.00
CC[C@@]12CC[C@@H]3N(C)c4ccc([C@@H]5[C@H]6O[C@H]6[C@@]6(CC)CC(C(=O)OC)=C7Nc8c(cc(O)c(OC)c8OC)[C@@]78CCN5[C@@H]68)cc4[C@@]34CCN(C[C@H]3O[C@H]31)[C@@H]24: < 5.00
CC[C@@]12CC(C(=O)OC)=C3N=C4C(=CC(=O)C(O)=C4OC)[C@@]34CCN([C@@H]3c5cc6c(cc5O[C@@H]3[C@H]1O)NC1=C(C(=O)OC)C[C@]3(CC)[C@@H]5O[C@@H]5CN5CC[C@@]16[C@@H]53)[C@H]42 (stereo in doubt; 7): 5.38

Parameters: items (list). Returns: pIC50 for each item.
1. CC[C@@]12CC(C(=O)OC)=C3Nc4cc5c(cc4[C@@]34CCN(C[C@H]3O[C@H]31)[C@@H]24)[C@@H]1[C@H](O5)[C@@H](O)[C@@]2(CC)CC(C(=O)OC)=C3Nc4c(ccc(OC)c4O)[C@@]34CCN1[C@@H]24
2. CC[C@@]12CC(C(=O)OC)=C3N=C4C(=CC(=O)C(OC)=C4OC)[C@@]34CCN([C@H](c3ccc5c(c3)[C@@]36CCN7C[C@H]8O[C@H]8[C@@](CC)(CC[C@@H]3N5C)[C@H]76)[C@H]3O[C@H]31)[C@H]42
3. CC[C@@]12C=C(C(=O)OC)C3=Nc4c(cc(O)c(OC)c4OC)[C@@]34CCN([C@@H]3c5cc6c(cc5O[C@@H]3[C@H]1O)NC1=C(C(=O)OC)C[C@]3(CC)[C@@H]5O[C@@H]5CN5CC[C@@]16[C@@H]53)[C@@H]24

["< 5.00", 5.57, "< 5.00"]

---

Tested on: KB/VJ300
assay_method_text: Cytotoxicity against human KB/VJ300 cells after 72 hrs by MTT assay
Format: functional, cell-based
test_context: Homo sapiens, KB/VJ300, 72 h
value_type: IC50 (µM)
Answers are plain numbers, in µM.

CC[C@]1(O)C[C@H]2CN(CCc3c([nH]c4ccccc34)[C@@](C(=O)OC)(c3cc4c(cc3OC)N(C=O)[C@H]3[C@@](O)(C(=O)OC)[C@H](OC(C)=O)[C@]5(CC)C=CCN6CC[C@]43[C@@H]65)C2)C1: 2.6

Attention now turns to another entry.
Which IC50 is reported for this molecule? CC[C@]12C=CCN3CC[C@]4(C(=C(C(=O)OC)C1)Nc1cc5c(cc14)[C@@H]1[C@H](O5)[C@@H](O)[C@@]4(CC)CC(C(=O)OC)=C5N=C6C(=CC(=O)C(OC)=C6OC)[C@@]56CCN1[C@H]64)[C@@H]32 4.6

---

Exercise: for every item that follows, state its recorded IC50.
Test system: LNCaP
assay_method_text: Cytotoxicity against human LNCAP cells after 72 hrs by MTT assay
Type: functional, cell-based
test_context: Homo sapiens, LNCaP, 72 h
Answers are plain numbers, in µM.

CC[C@@]12CC(C(=O)OC)=C3N=C4C(=CC(=O)C(OC)=C4OC)[C@@]34CCN([C@H](c3ccc5c(c3)[C@@]36CCN7C[C@H]8O[C@H]8[C@@](CC)(CC[C@@H]3N5C)[C@H]76)[C@H]3O[C@H]31)[C@H]42: 3.3
CC[C@@]12CC(C(=O)OC)=C3N=C4C(=CC(=O)C(O)=C4OC)[C@@]34CCN([C@@H]3c5cc6c(cc5O[C@@H]3[C@H]1O)NC1=C(C(=O)OC)C[C@]3(CC)[C@@H]5O[C@@H]5CN5CC[C@@]16[C@@H]53)[C@H]42 (stereo in doubt; 7): 1.6

Need IC50, item CC[C@@]12CC(C(=O)OC)=C3N=C4C(=CC(=O)C(OC)=C4OC)[C@@]34CCN([C@@H]3c5cc6c(cc5O[C@@H]3[C@H]1O)NC1=C(C(=O)OC)C[C@]3(CC)[C@H](O)[C@@H](O)CN5CC[C@@]16[C@@H]53)[C@H]42 2.6

---

Give IC50 for every item shown.
System: A549
assay_method_text: Cytotoxicity against human A549 cells after 72 hrs by MTT assay
Assay type: functional, cell-based
test_context: A549, 72 h
Give bare numbers, in µM.

CC[C@@]12CC(C(=O)OC)=C3Nc4cc5c(cc4[C@@]34CCN(C[C@H]3O[C@H]31)[C@@H]24)[C@@H]1[C@H](O5)[C@@H](O)[C@@]2(CC)CC(C(=O)OC)=C3Nc4c(cc(O)c(OC)c4OC)[C@@]34CCN1[C@@H]24: 3.2

What value of IC50 has been reported for the following compound? CC[C@@]12CC[C@@H]3N(C)c4ccc([C@@H]5[C@H]6O[C@H]6[C@@]6(CC)CC(C(=O)OC)=C7Nc8c(cc(O)c(OC)c8OC)[C@@]78CCN5[C@@H]68)cc4[C@@]34CCN(C[C@H]3O[C@H]31)[C@@H]24 8.2

This collection of values is drawn from ChEMBL document CHEMBL4480449.
